The measurements presented in this section are drawn from patent US12024507B2.

Experiment: Metabolic stability in human hepatocytes
Assay type: in vitro ADME
Conditions: cryopreserved hepatocytes, 1×10^6 cells/mL, intrinsic clearance
parameterMeasured: CLint scaled at 1 μM (mL/min/kg)

Answered examples (2):
N#Cc1ccc(COc2cccc(C3CCN(Cc4nc5ccc(-c6nnn[nH]6)cc5n4Cc4cncs4)CC3)n2)c(F)c1 [Compound 11]
19.7
N#Cc1ccc(COc2cccc(C3CCN(Cc4nc5ccc(-c6nnn[nH]6)cc5n4C[C@@H]4CCO4)CC3)n2)c(F)c1 [Compound 8]
7.99

a: CC1(c2ccc(C#N)cc2F)Oc2cccc(C3CCN(Cc4nc5ccc(-c6nnn[nH]6)cc5n4C[C@@H]4CCO4)CC3)c2O1 (stereo partly shown) [Compound 16]
b: N#Cc1ccc(COc2cccc(C3CCN(Cc4nc5ccc(-c6nc(=O)[nH]o6)cc5n4Cc4cncs4)CC3)n2)c(F)c1 [Compound 13]
stdin: Among a and b , whose measured CLint scaled at 1 μM is the smaller figure? Your choice should be expressed through its label.
stdout: a
(a: 6.22 mL/min/kg, b: 35.8 mL/min/kg)

----------
Experiment: Metabolic stability in human hepatocytes
Type: in vitro ADME
Conditions: cryopreserved hepatocytes, 1×10^6 cells/mL, read-out: Human T1/2
parameterMeasured: half-life at 1 μM (h)

I: N#Cc1ccc(COc2cccc(C3CCN(Cc4nc5ccc(-c6nc(=O)[nH]o6)cc5n4Cc4cncs4)CC3)n2)c(F)c1
II: N#Cc1ccc(COc2cccc(C3CCN(Cc4nc5ccc(-c6nnn[nH]6)cc5n4C[C@@H]4CCO4)CC3)n2)c(F)c1
stdin: Of I and II , which one carries the higher reported half-life at 1 μM? // respond with label for picked entry
stdout: II

I: N#Cc1ccc(COc2cccc(C3CCN(Cc4nc5ccc(-c6nnn[nH]6)cc5n4Cc4cncs4)CC3)n2)c(F)c1
II: CC1(c2ccc(C#N)cc2F)Oc2cccc(C3CCN(Cc4nc5ccc(-c6nnn[nH]6)cc5n4C[C@@H]4CCO4)CC3)c2O1 (stereo partly shown)
stdin: Task for the reader: decide whether I or II has the larger half-life at 1 μM. State the label of the item chosen.
stdout: II
(II: 6.44 h, I: 2.03 h)

----------
Target: human GLP-1R receptor (Homo sapiens)
Sequence (P43220 24-463): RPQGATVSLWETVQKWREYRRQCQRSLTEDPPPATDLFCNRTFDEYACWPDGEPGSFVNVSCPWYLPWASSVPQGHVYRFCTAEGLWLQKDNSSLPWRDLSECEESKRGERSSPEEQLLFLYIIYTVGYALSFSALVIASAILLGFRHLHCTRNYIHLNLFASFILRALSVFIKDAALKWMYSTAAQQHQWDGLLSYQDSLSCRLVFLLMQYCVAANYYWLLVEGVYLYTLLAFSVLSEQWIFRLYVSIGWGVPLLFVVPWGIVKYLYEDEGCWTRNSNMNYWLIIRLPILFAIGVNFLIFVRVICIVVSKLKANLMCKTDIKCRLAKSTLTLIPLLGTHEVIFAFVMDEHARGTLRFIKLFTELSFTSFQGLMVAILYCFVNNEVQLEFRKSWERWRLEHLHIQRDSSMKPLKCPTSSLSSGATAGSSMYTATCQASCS
Assay: GLP-1R cell assay (cAMP TR-FRET, low expression CHO-K1_hGLP-1Rlow_clone10 cell line)
Conditions: CHO-K1_hGLP-1Rlow_clone10 cells, relative to control GLP-1 peptide agonist, read-out: GLP1 EC50
pEC50: −log10 of the molar value.
parameterMeasured: pEC50

A: N#Cc1ccc(COc2cccc(C3CCN(Cc4nc5ccc(-c6nnn[nH]6)cc5n4Cc4cncs4)CC3)n2)c(F)c1
B: N#Cc1ccc(COc2cccc(C3CCN(Cc4nc5ccc(-c6nnn[nH]6)cc5n4C[C@@H]4CCO4)CC3)n2)c(F)c1
C: N#Cc1ccc(COc2cccc(C3CCN(Cc4nc5ccc(-c6c[nH]c(=O)o6)cc5n4Cc4cncs4)CC3)n2)c(F)c1
D: N#Cc1ccc(COc2cccc(N3CCN(Cc4nc5ccc(C(=O)NCC(F)(F)F)cc5n4Cc4ncco4)CC3)n2)c(F)c1
stdin: Order these by pEC50, descending, and give the full ranking. List the labels, following the order given in the request.
stdout: B, A, C, D
(B: 7.82, A: 7.27, C: 6.15, D: 5.23)

----------
Target: human GLP-1R receptor (Homo sapiens)
Assay: GLP-1R cell assay (cAMP TR-FRET, low expression CHO-K1_hGLP-1Rlow_clone10 cell line)
Settings: CHO-K1_hGLP-1Rlow_clone10 cells, relative to control GLP-1 peptide agonist, read-out: GLP1 EC50
parameterMeasured: EC50 (µM)

Some compounds with known EC50 results, for comparison:
N#Cc1ccc(COc2cccc(C3CCN(Cc4nc5ccc(C(=O)NO)cc5n4C[C@@H]4CCO4)CC3)n2)c(F)c1 [Compound 14]
0.05
N#Cc1ccc(COc2cccc(C34CCN(Cc5nc6ccc(-c7nnn[nH]7)cc6n5Cc5cncs5)CC3C4)n2)c(F)c1 (stereo not shown) [Compound 10]
0.118
N#Cc1ccc(COc2cccc(C3CCN(Cc4nc5ccc(-c6nc(=O)o[nH]6)cc5n4C[C@@H]4CCO4)CC3)n2)c(F)c1 [Compound 5]
0.0454
CC1(c2ccc(C#N)cc2F)Oc2cccc(C3CCN(Cc4nc5ccc(-c6nnn[nH]6)cc5n4C[C@@H]4CCO4)CC3)c2O1 (stereo partly shown) [Compound 16]
0.00268

A: O=c1cc(-c2ccc3nc(CN4CCC(c5cccc(OCc6ccc(Cl)cc6F)n5)CC4)n(C[C@@H]4CCO4)c3c2)o[nH]1 [Compound 6]
B: O=c1nc(-c2ccc3nc(CN4CCN(c5cccc(OCc6ccc(Br)cc6F)n5)CC4)n(C[C@@H]4CCO4)c3c2)[nH]o1 [Compound 7]
C: N#Cc1ccc(COc2cccc(C3CCN(Cc4nc5ccc(C6=CC(=O)NC6=O)cc5n4Cc4cncs4)CC3)n2)c(F)c1 [Compound 9]
D: N#Cc1ccc(COc2cccc(C3CCN(Cc4nc5ccc(-c6nc(=O)[nH]o6)cc5n4Cc4cncs4)CC3)n2)c(F)c1 [Compound 13]
E: CS(=O)(=O)NC(=O)c1ccc2nc(CN3CCN(c4cccc(OCc5ccc(C#N)cc5F)n4)CC3)n(Cc3ncco3)c2c1 [Compound 4]
stdin: List items by EC50 in falling order. List the labels, following the order given in the request.
stdout: C, E, B, D, A
(C: 0.461 µM, E: 0.231 µM, B: 0.148 µM, D: 0.0252 µM, A: 0.0106 µM)
